B1: Osa-1-4 twister ribozyme (parent)
chain: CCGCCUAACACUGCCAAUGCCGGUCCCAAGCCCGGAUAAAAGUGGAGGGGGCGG

Variants of: B1
Test: self-cleavage, relative activity (ratio to wild type); higher = more cleavage; co-transcriptional
Measured attribute: self-cleavage

Fill in the blank: the reported self-cleavage of CCGCCUAACACUGGUAAUGCCGGUCCCAAGCCCGGAUAAAAGUGGAGGGGGCGG is ____.
0.06

Fill in the blank: the reported self-cleavage of CCGCCUAACACUGCCAAUGCCGGUCCCAAGCGCGGAUAAAAGAGGAGGGGGCGG is ____.
0.1

Fill in the blank: the reported self-cleavage of CCGCCUAAGACCGCCAAUGCCGGUCCCAAGCCCGGAUAAAAGUGGAGGGGGCGG is ____.
0.1

Fill in the blank: the reported self-cleavage of CCGCCUAACACUGCCAAUACCGGUCCCAAGCCCGGAUAAAAGUGGAGAGGGCGG is ____.
0.06

Sourced from the RNAGym collection of RNA variant scans (doi:10.1002/anie.201605470)
